Numbers sourced from BigSolDB 2.1.

# Study conditions: in acetone, 305 K
Measurement kind: solubility (mole fraction)

{"columns": ["Chemical smiles", "Number"],
 "data": [
  ["CO[C@H]1C[C@@H]2CC[C@@H](C)[C@@](O)(O2)C(=O)C(=O)N2CCCC[C@H]2C(=O)O[C@H]([C@H](C)C[C@@H]2CC[C@@H](O)[C@H](OC)C2)CC(=O)[C@H](C)/C=C(\\C)[C@@H](O)[C@@H](OC)C(=O)[C@H](C)C[C@H](C)/C=C/C=C/C=C/1C", 0.00343]
]}

* * *

# Study conditions: in acetone, 340 K

{"columns": ["Chemical smiles", "solubility (mole fraction)"],
 "data": [
  ["CO[C@H]1C[C@@H]2CC[C@@H](C)[C@@](O)(O2)C(=O)C(=O)N2CCCC[C@H]2C(=O)O[C@H]([C@H](C)C[C@@H]2CC[C@@H](O)[C@H](OC)C2)CC(=O)[C@H](C)/C=C(\\C)[C@@H](O)[C@@H](OC)C(=O)[C@H](C)C[C@H](C)/C=C/C=C/C=C/1C", 0.00627]
]}
